Recorded values, source paper PMC9739877.

Target: HIV-1 CA hexamer (Human immunodeficiency virus type 1 group M subtype B, UniProt P12493, A146C/E177C/M317A/W316A)
Assay: SPR binding to disulfide-stabilized hexameric HIV-1 CA
result_type: Kd (µM)
Reply with just the number (in µM).

Dear colleague, I am looking for the recorded Kd of the following compound: COc1ccc(N(C)C(=O)[C@H](Cc2cc(F)cc(F)c2)NC(=O)CN2CCN(C(=O)Cc3c[nH]c4ccc(F)cc34)CC2=O)cc1
7.2

----------
Can you tell me pEC50 for the items I'm about to list?
Test system: HIV-2 (ROD)
Assay: Anti-HIV-2 (ROD) activity in MT-4 cells, MTT assay
Format: cell-based
Conditions: Human immunodeficiency virus 2, MT4, 50% protection against HIV-induced cytotoxicity
# reply with the number alone; pEC50 is -log10 of concentration in mol/L

Dear colleague, I am looking for the recorded pEC50 of the following molecule: COc1ccc(N(C)C(=O)[C@H](Cc2ccccc2)NC(=O)CN2CCN(C(=O)Cc3c[nH]c4ccc(O)cc34)CC2=O)cc1 [7e]
3.73

Dear colleague, I am looking for the recorded pEC50 of the following molecule: COc1ccc(N(C)C(=O)[C@H](Cc2ccccc2)NC(=O)CN2CCN(C(=O)Cc3c[nH]c4ccc(OC)cc34)CC2=O)cc1 [7b]
4.77

Dear colleague, I am looking for the recorded pEC50 of the following molecule: COc1ccc(N(C)C(=O)[C@H](Cc2cc(F)cc(F)c2)NC(=O)CN2CCN(C(=O)c3ccc(NC(=O)C(F)(F)F)cc3)CC2=O)cc1 [F2-7j]
4.78

Dear colleague, I am looking for the recorded pEC50 of the following molecule: COc1ccc(N(C)C(=O)[C@H](Cc2cc(F)cc(F)c2)NC(=O)CN2CCN(C(=O)Cc3c(C)[nH]c4ccccc34)CC2=O)cc1 [F2-7a]
4.71

Dear colleague, I am looking for the recorded pEC50 of the following molecule: COc1ccc(N(C)C(=O)[C@H](Cc2cc(F)cc(F)c2)NC(=O)CN2CCN(C(=O)c3ccc(NC(=O)C4CC4)cc3)CC2=O)cc1 [F2-7i]
4.82

Dear colleague, I am looking for the recorded pEC50 of the following molecule: COc1ccc(N(C)C(=O)[C@H](Cc2ccccc2)NC(=O)CN2CCN(C(=O)c3ccc(NC(C)=O)cc3)CC2=O)cc1 [7g]
3.74

Dear colleague, I am looking for the recorded pEC50 of the following molecule: COc1ccc(N(C)C(=O)[C@H](Cc2cc(F)cc(F)c2)NC(=O)CN2CCN(C(=O)Cc3c[nH]c4ccccc34)CC2=O)cc1 [F2-7d]
4.75

Dear colleague, I am looking for the recorded pEC50 of the following molecule: COc1ccc(N(C)C(=O)[C@H](Cc2ccccc2)NC(=O)CN2CCN(C(=O)c3ccc(NC(=O)C(F)(F)F)cc3)CC2=O)cc1 [7j]
4.83

Dear colleague, I am looking for the recorded pEC50 of the following molecule: COc1ccc(N(C)C(=O)[C@H](Cc2ccccc2)NC(=O)CN2CCN(C(=O)Cc3c[nH]c4ccccc34)CC2=O)cc1 [7d]
5.31

----------
Experiment: in vitro
Conditions: both, human, plasma
Can you tell me remaining at 1 h, 2 μM for the items I'm about to list?
Reply with just the number (in %).

Dear colleague, I am looking for the recorded remaining at 1 h, 2 μM of the following compound: COc1ccc(N(C)C(=O)[C@H](Cc2cc(F)cc(F)c2)NC(=O)CN2CCN(C(=O)Cc3c[nH]c4ccc(F)cc34)CC2=O)cc1
90.9

Dear colleague, I am looking for the recorded remaining at 1 h, 2 μM of the following compound: CC(C)[N+](C)(CCOC(=O)C1c2ccccc2Oc2ccccc21)C(C)C [Propantheline bromide]
1.9
